System: CASOB (Cassia obtusifolia)
TEST NAME: Preemergence herbicidal evaluation
Type: in vivo, L.
CONDITION CONTEXT: Rate 0.1250 kg/ha; rated 4-5 weeks after treatment
# Preemergence herbicidal rating CASOB per entry

Worked examples, 6 compounds total:
CC1COC(c2nsc3ccc(-n4c(=O)cc(C(F)(F)F)n(C)c4=O)cc23)O1 (stereo not shown) [Compound 57]    7.5
Cc1nn(-c2nsc3ccc(-n4c(=O)cc(C(F)(F)F)n(C)c4=O)cc23)c(C)c1C [Compound 49]    0.0
Cn1c(C(F)(F)F)cc(=O)n(-c2ccc3snc(-c4sccc4CBr)c3c2)c1=O [Compound 80]    0.0
COCC1COC(c2nsc3ccc(-n4c(=O)cc(C(F)(F)F)n(C)c4=O)cc23)O1 (stereo not shown) [Compound 64]    9.0
Cn1c(C(F)(F)F)cc(=O)n(-c2ccc3snc(C4OCCCS4)c3c2)c1=O (stereo not shown) [Compound 34]    3.0
C=CC1COC(c2nsc3ccc(-n4c(=O)cc(C(F)(F)F)n(C)c4=O)cc23)O1 (stereo not shown) [Compound 76]    8.5

Just so you know, measured Preemergence herbicidal rating CASOB for Cn1c(C(F)(F)F)cc(=O)n(-c2cc3c(C4OCCCO4)nsc3cc2F)c1=O [Compound 62] came out at 9.0

----------
Tested on: SETVI (Setaria viridis)
TEST NAME: Preemergence herbicidal evaluation
Format: in vivo, (L.) Beau
CONDITION CONTEXT: Rate 0.0620 kg/ha; rated 4-5 weeks after treatment
Description: Results of herbicide evaluation are expressed on a rating scale (0-9). The scale is based upon a visual observation of plant stand, vigor, malformation, size, chlorosis and overall plant appearance as compared with a control. […]
The compounds listed here are annotated with their Preemergence herbicidal rating SETVI.
Answer as a number with no unit attached.

Illustrative cases are given below, each with its answer.
Cn1c(C(F)(F)F)cc(=O)n(-c2ccc3snc(-c4ccco4)c3c2)c1=O    3.0
C=C1COC(c2nsc3ccc(-n4c(=O)cc(C(F)(F)F)n(C)c4=O)cc23)OC1    8.0
C[C@@H]1OC(c2nsc3ccc(-n4c(=O)cc(C(F)(F)F)n(C)c4=O)cc23)O[C@@H]1C (stereo partly shown)    9.0

Observed Preemergence herbicidal rating SETVI, SETVI (Setaria viridis), `Cn1c(C(F)(F)F)cc(=O)n(-c2ccc3snc(C4=NCCO4)c3c2)c1=O` : 0.0

Measured Preemergence herbicidal rating SETVI (SETVI (Setaria viridis)), entry C[C@@H]1C[C@H](C)OC(c2nsc3ccc(-n4c(=O)cc(C(F)(F)F)n(C)c4=O)cc23)O1 (stereo partly shown) : 9.0

Recorded Preemergence herbicidal rating SETVI for C=CC1COC(c2nsc3ccc(-n4c(=O)cc(C(F)(F)F)n(C)c4=O)cc23)O1 (stereo not shown) on SETVI (Setaria viridis) was 9.0

----------
Catalogue of IPOHE herbicidal rating values
Tested on: IPOHE (Ipomoea hederacea)
TEST NAME: Postemergence herbicidal evaluation
Type: in vivo, (L.) Jacq.
CONDITION CONTEXT: postemergence, rate 0.0320 kg/ha
Keep the answer to the number alone.

CCCC1COC(c2nsc3ccc(-n4c(=O)cc(C(F)(F)F)n(C)c4=O)cc23)O1 (stereo not shown) [Compound 77]    9.0
C[C@@H]1C[C@H](C)OC(c2nsc3cc(F)c(-n4c(=O)cc(C(F)(F)F)n(C)c4=O)cc23)O1 (stereo partly shown) [Compound 67]    9.0
Cc1cnn(-c2nsc3ccc(-n4c(=O)cc(C(F)(F)F)n(C)c4=O)cc23)c1 [Compound 59]    8.0
CSCC1COC(c2nsc3ccc(-n4c(=O)cc(C(F)(F)F)n(C)c4=O)cc23)O1 (stereo not shown) [Compound 84]    9.0
Cn1c(C(F)(F)F)cc(=O)n(-c2ccc3snc(-c4nc5ccccc5[nH]c4=O)c3c2)c1=O [Compound 90]    6.5

Measured IPOHE herbicidal rating, Cn1c(C(F)(F)F)cc(=O)n(-c2ccc3snc(C4OCC(CCl)O4)c3c2)c1=O (stereo not shown) [Compound 72] : 9.0

Form field IPOHE herbicidal rating, entry Cn1c(C(F)(F)F)cc(=O)n(-c2ccc3snc(C4OC(=O)C(C)(C)O4)c3c2)c1=O (stereo not shown) [Compound 71] : 9.0
